Entries and their measured MC4R cAMP EC50 follow.
- testTarget: human melanocortin 4 receptor (human, UniProt P32245 1-332)
- Sequence (P32245 whole entry): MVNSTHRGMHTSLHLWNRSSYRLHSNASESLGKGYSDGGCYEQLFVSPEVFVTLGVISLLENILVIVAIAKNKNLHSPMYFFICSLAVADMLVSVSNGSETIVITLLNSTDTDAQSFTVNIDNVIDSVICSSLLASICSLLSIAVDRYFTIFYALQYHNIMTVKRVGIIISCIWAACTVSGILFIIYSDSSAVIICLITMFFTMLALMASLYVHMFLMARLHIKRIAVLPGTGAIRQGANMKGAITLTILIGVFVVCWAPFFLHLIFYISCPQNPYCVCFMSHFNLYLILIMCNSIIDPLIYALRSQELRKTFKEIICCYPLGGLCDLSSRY
- assayName: cell-based or functional assay
Positions of bridges follow the written chain, without caps; N, C: chain ends. Non-standard residues stand in square brackets, D forms with d.
The figure you give is taken to be in nM; do not add the unit.

Name the reported MC4R cAMP EC50 value associated with the binder cyclo(CEH[dF]HWCEH[dF]HW) (disulfide 1-7; SMILES O=C(O)CC[C@@H]1NC(=O)[C@@H]2CSSC[C@H](NC(=O)[C@H](Cc3c[nH]c4ccccc34)NC(=O)[C@H](Cc3c[nH]cn3)NC(=O)[C@@H](Cc3ccccc3)NC(=O)[C@H](Cc3c[nH]cn3)NC1=O)C(=O)N[C@@H](CCC(=O)O)C(=O)N[C@@H](Cc1c[nH]cn1)C(=O)N[C@H](Cc1ccccc1)C(=O)N[C@@H](Cc1c[nH]cn1)C(=O)N[C@@H](Cc1c[nH]c3ccccc13)C(=O)N2, also called c[c[Cys-Glu-His-D-Phe-His-Trp-Cys]-Glu-His-D-Phe-His-Trp]) [Chem. 53]
11

Item: cyclo(CH[dF]RWECH[dF]RWE) (disulfide 1-7; SMILES N=C(N)NCCC[C@@H]1NC(=O)[C@@H](Cc2ccccc2)NC(=O)[C@H](Cc2c[nH]cn2)NC(=O)[C@@H]2CSSC[C@H](NC(=O)[C@H](CCC(=O)O)NC(=O)[C@H](Cc3c[nH]c4ccccc34)NC1=O)C(=O)N[C@@H](Cc1c[nH]cn1)C(=O)N[C@H](Cc1ccccc1)C(=O)N[C@@H](CCCNC(=N)N)C(=O)N[C@@H](Cc1c[nH]c3ccccc13)C(=O)N[C@@H](CCC(=O)O)C(=O)N2, also called c[c[Cys-His-D-Phe-Arg-Trp-Glu-Cys]-His-D-Phe-Arg-Trp-Glu]) [Chem. 1]
14.9
